Origin of values: PubChem BioAssay AID624330

Measurement Target: Rac GTPase-activating protein 1 (Homo sapiens) (UniProt Q9H0H5)
Sequence (Q9H0H5 whole entry, looked up): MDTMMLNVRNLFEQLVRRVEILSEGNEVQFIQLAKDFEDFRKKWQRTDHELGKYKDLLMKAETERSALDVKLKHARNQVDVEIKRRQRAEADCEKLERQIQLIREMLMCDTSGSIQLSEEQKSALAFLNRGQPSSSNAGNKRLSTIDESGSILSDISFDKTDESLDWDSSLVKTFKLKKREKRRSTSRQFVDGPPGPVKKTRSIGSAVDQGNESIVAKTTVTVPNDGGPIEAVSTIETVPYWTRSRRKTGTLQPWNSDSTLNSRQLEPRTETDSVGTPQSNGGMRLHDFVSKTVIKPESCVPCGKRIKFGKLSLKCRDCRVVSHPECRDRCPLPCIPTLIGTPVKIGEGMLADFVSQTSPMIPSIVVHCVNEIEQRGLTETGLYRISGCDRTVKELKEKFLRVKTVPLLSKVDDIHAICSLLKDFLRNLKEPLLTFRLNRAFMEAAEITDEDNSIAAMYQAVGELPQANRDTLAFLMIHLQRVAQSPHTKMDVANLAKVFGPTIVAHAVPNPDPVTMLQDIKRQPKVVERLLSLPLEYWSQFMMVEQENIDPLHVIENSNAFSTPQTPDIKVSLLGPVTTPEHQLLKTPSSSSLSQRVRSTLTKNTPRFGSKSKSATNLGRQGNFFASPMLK
Test Details: blockers of MgcRacGAP-driven Rac1 GTP hydrolysis – biochemical, ADP Hunter fluorescence, primary and confirmatory, confirmation (AID 624330);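 also: fluorescence reports GDP produced by GAP-driven GTP hydrolysis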
Condition Set: MgcRacGAP-stimulated Rac1 GTP hydrolysis, at 30 µM, hits give high values, GST-tagged Rac1 F28L mutant substrate
About 2,100 (0.62%) of roughly 340,000 compounds were called active. These entries were drawn from the full list. Potency and affinity values are given separately.
Recorded inhibition, one value per entry.
Endpoint: inhibition (%)

* Nc1cccc2cc(S(=O)(=O)O)ccc12 | 20.9
* Nc1cc(C(F)(F)F)ccc1Nc1ccccc1 | 6.27
* Nc1cc(S(=O)(=O)O)cc2ccc(S(=O)(=O)O)cc12 | 6.2
* Nc1ccc(Nc2ccccc2N)cc1 | 24.3
* Cc1ccc(NC(=O)CSc2nn(-c3ccccc3)c(=S)s2)cc1S(=O)(=O)N(C)C | 2.35
* Cc1c(-c2ccccc2)sc(Br)c1C(=O)N1CCOCC1 | 2.64
* COc1ccccc1Nc1ccc(N)cc1 | 10.5
* Cc1cc2ccccc2n2c(SCC(=O)NCc3cccs3)nnc12 | -2.11
* O=C(O)c1ccccc1Nc1cccc(C(F)(F)F)c1 | 8.9
* O=C(O)c1cc2cc(S(=O)(=O)O)ccc2cc1O | 6.33
* COc1ccccc1Nc1ccc(NS(=O)(=O)c2ccc(C(C)=O)cc2)cc1 | 23.2
* O=P(c1ccccc1)(c1ccccc1)c1cc(S(=O)(=O)O)ccc1O | 5.95

---

Reported inhibition values for the following compounds.
Measurement Target: Rac GTPase-activating protein 1 (Homo sapiens)
Test Details: blockers of MgcRacGAP-driven Rac1 GTP hydrolysis – biochemical, ADP Hunter fluorescence, primary and confirmatory, confirmation (AID 624330);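 also: fluorescence reports GDP produced by GAP-driven GTP hydrolysis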
Condition Set: MgcRacGAP-stimulated Rac1 GTP hydrolysis, at 30 µM, hits give high values, GST-tagged Rac1 F28L mutant substrate
The campaign covered roughly 340,000 compounds. About 2,100 (0.62%) were called active. Only a sample is shown. Results with a measured potency or affinity are listed apart.
Endpoint: inhibition (%)

- COCCOc1ccc(C(F)(F)F)cc1NC(=O)c1ccc(C(F)(F)F)cc1: -6.51
- Cc1nccn1CC(=O)N/N=C/c1cc(Br)cs1: 3.63
- Cc1ccc(OCCCCN2CCC(C)CC2)c(Br)c1: 17
- Nc1cc([N+](=O)[O-])ccc1Nc1ccccc1: 15.2
- O=C(CNC(=O)c1ccc(Cl)cc1Cl)NCc1ccccn1: -0.06
- CCCCCNCC(=O)Nc1cc(C(F)(F)F)ccc1OCCOC: 29.2
- Cc1ccc(NC(=O)CN2CCCCCC2)cc1Br: 24.2
- Cc1cccc(N=Cc2c(O)cc(C)oc2=O)c1: 5.21
- CCC(=O)c1ccc(CCCCCC(=O)O)s1: 3.88
- O=[N+]([O-])c1ccccc1Nc1ccccc1[N+](=O)[O-]: -9.22
- Cc1ccc(NC(=O)CN2CCCC2)cc1Br: 30.6
- O=C(NCCCN1CCCC1=O)c1cccc(S(=O)(=O)N2CCN(c3ccc(F)cc3)CC2)c1: 1.69

---

Here the recorded inhibition is given for each entry.
Measurement Target: Rac GTPase-activating protein 1 (Homo sapiens)
Test Details: blockers of MgcRacGAP-driven Rac1 GTP hydrolysis – biochemical, ADP Hunter fluorescence, primary and confirmatory, confirmation (AID 624330);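 also: fluorescence reports GDP produced by GAP-driven GTP hydrolysis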
Condition Set: MgcRacGAP-stimulated Rac1 GTP hydrolysis, at 30 µM, hits give high values, GST-tagged Rac1 F28L mutant substrate
The whole screen tested about 340,000 compounds, of which about 2,100 (0.62%) were called active. The list is a sample of the results. Potency and affinity values are given separately.
Endpoint: inhibition (%)

* Cc1ccc(-c2nnc(NC(=O)c3ccco3)s2)cc1 | 6.39
* CCOC(=O)CC1C(=O)NCCN1S(=O)(=O)c1cccc(C(F)(F)F)c1 (stereo unspecified) | 7.16
* CS(=O)(=O)N1CCN(c2ccccc2NC(=O)c2ccc(Cl)cc2)CC1 | 13.8
* Cc1cccc2c(N)c3c(nc12)CCCC3 (tested in a mixture with another compound) | 16.8
* CCN(CC)c1ccc(N=Cc2ccc(N(CC)CC)cc2O)cc1 | 6.98
* Cn1nnnc1SCC(=O)Nc1cc(S(=O)(=O)N2CCCC2)ccc1Cl | 4.66
* O=C(CSc1ncnc2sccc12)NCc1ccc2c(c1)OCO2 | 4.24
* Cn1c(C(=O)N2CCCC(Nc3ccc(F)cc3)C2)cc2ccccc21 (stereo unspecified) | -8.53
* Cc1ccc(S(=O)(=O)NCCS(=O)(=O)N2CCN(c3ccccc3)CC2)cc1 | -3.13
* CC(=O)Nc1nnc(C)s1 | 9.89
* COc1ccccc1/C=N/NC(=O)CC(=O)Nc1ccc(Cl)c(Cl)c1 | 3.66
